# test: Plasma levels in wild-type and Abcg2-/- male mice after intraperitoneal administration
# assayContext: male, FVB/N, mouse, in vivo, ip, 10 mg/kg
assayEndpoint: AUC (ng·h/mL)
Please give a number only; it is taken to be in ng·h/mL.

Input line: Consider the compound `Cc1cc2nc3[nH]c(=O)[nH]c(=O)c3nc2cc1C` and give its measured AUC.
Output line: 720

* * *

# test: Tissue distribution in wild-type and Abcg2-/- male mice
# assayContext: male, FVB/N, mouse, in vivo, ip, 10 mg/kg, Concentration in testis, Abcg2-/- male mice, 10 mg/kg intraperitoneal
assayEndpoint: concentration at 60 min (ng/mL)
Please give a number only; it is taken to be in ng/mL.

Input line: Consider the molecule Cc1cc2nc3[nH]c(=O)[nH]c(=O)c3nc2cc1C [lumichrome] and give its measured concentration at 60 min.
Output line: 180

* * *

# test: Plasma levels in wild-type and Abcg2-/- male mice after intraperitoneal administration
# assayContext: male, FVB/N, mouse, in vivo, ip, 10 mg/kg, Plasma concentration, Abcg2-/- male mice, 10 mg/kg intraperitoneal, 45 min
assayEndpoint: concentration at 45 min (ng/mL)
Please give a number only; it is taken to be in ng/mL.

Input line: Consider the compound `Cc1cc2nc3[nH]c(=O)[nH]c(=O)c3nc2cc1C` and give its measured concentration at 45 min.
Output line: 1020

* * *

# test: in vivo
# assayContext: female, FVB/N, mouse, ip, 10 mg/kg, Milk concentration, Abcg2-/- lactating female mice, 10 mg/kg intraperitoneal
assayEndpoint: concentration at 30 min (ng/mL)
Please give a number only; it is taken to be in ng/mL.

Input line: Consider the compound `Cc1cc2nc3[nH]c(=O)[nH]c(=O)c3nc2cc1C` and give its measured concentration at 30 min.
Output line: 430

* * *

# test: Tissue distribution in wild-type and Abcg2-/- male mice
# assayContext: male, FVB/N, mouse, in vivo, ip, 10 mg/kg, Concentration in liver, wild-type male mice, 10 mg/kg intraperitoneal
assayEndpoint: concentration at 60 min (ng/mL)
Please give a number only; it is taken to be in ng/mL.

Input line: Consider the compound Cc1cc2nc3[nH]c(=O)[nH]c(=O)c3nc2cc1C [lumichrome] and give its measured concentration at 60 min.
Output line: 150

* * *

# test: Tissue distribution in wild-type and Abcg2-/- male mice
# assayContext: male, FVB/N, mouse, in vivo, ip, 10 mg/kg, Concentration in small intestine content, Abcg2-/- male mice, 10 mg/kg intraperitoneal
assayEndpoint: concentration at 60 min (ng/mL)
Please give a number only; it is taken to be in ng/mL.

Input line: Consider the compound Cc1cc2nc3[nH]c(=O)[nH]c(=O)c3nc2cc1C [lumichrome] and give its measured concentration at 60 min.
Output line: 310

* * *

# test: in vivo
# assayContext: female, FVB/N, mouse, ip, 10 mg/kg, Plasma concentration, Abcg2-/- lactating female mice, 10 mg/kg intraperitoneal
assayEndpoint: concentration at 30 min (ng/mL)
Please give a number only; it is taken to be in ng/mL.

Input line: Consider the compound `Cc1cc2nc3[nH]c(=O)[nH]c(=O)c3nc2cc1C` and give its measured concentration at 30 min.
Output line: 280

* * *

# targetUnderTest: Abcg2 (BCRP) (Mus musculus, UniProt Q7TMS5)
# Sequence (Q7TMS5 whole entry): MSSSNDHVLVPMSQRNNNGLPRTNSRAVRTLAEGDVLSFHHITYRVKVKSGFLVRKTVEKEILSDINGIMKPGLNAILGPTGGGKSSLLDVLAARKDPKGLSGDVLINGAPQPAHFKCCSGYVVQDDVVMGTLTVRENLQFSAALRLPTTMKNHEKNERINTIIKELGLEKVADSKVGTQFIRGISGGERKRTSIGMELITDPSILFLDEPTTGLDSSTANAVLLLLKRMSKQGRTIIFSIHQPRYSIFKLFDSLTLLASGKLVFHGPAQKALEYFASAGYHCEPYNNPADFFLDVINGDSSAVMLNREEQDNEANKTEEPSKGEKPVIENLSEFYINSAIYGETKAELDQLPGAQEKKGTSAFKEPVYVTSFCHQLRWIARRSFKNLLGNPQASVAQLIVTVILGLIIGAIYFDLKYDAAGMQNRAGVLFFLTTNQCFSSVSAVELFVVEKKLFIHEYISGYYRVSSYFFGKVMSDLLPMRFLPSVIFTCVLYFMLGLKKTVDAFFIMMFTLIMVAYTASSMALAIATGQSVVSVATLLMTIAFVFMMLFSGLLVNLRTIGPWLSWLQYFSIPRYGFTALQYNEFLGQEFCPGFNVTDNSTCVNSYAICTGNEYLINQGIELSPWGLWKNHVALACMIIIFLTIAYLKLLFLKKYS
# test: Transepithelial transport assay in MDCK-II cells transduced with murine Abcg2
# Format: in vitro ADME
# assayContext: mouse; danofloxacin 10 µM, positive control, 4 h, MDCK-II mABCG2; read-out: Transport ratio (BA/AB)
assayEndpoint: efflux ratio at 4 h, 10 µM
Keep it simple and answer with nothing but the number.

Input line: Consider the compound `CN1C[C@@H]2C[C@H]1CN2c1cc2c(cc1F)c(=O)c(C(=O)O)cn2C1CC1` and give its measured efflux ratio at 4 h, 10 µM.
Output line: 9.24
